assay.endpoint: melting point

Request: Name the recorded melting point of the compound listed here: C=C(C)C1CC[C@]2(COC(=O)c3cn(CSc4ccccc4)nn3)CC[C@]3(C)C(CCC4[C@@]5(C)CC[C@H](O)C(C)(C)C5CC[C@]43C)C12 (stereo partly drawn)
Result: 143 to 146 °C

***
Request: Name the recorded melting point of the compound listed here: C=C(C)C1CC[C@]2(COC(=O)c3cn(Cc4ccccc4)nn3)CC[C@]3(C)C(CCC4[C@@]5(C)CC[C@H](O)C(C)(C)C5CC[C@]43C)C12 (stereo partly drawn)
Result: 169 to 171 °C

Request: Name the recorded melting point of the compound listed here: C=C(C)C1CC[C@]2(COC(=O)c3cn(CSc4ccccc4)nn3)CC[C@]3(C)C(CCC4[C@@]5(C)CC[C@H](OC(=O)c6cn(CSc7ccccc7)nn6)C(C)(C)C5CC[C@]43C)C12 (stereo partly drawn)
Result: 127 to 131 °C

This collection of values is drawn from paper PMC6150379.
